Hello, the source for this data is PubChem BioAssay (NCI), in case you need it.

System: SK-MEL-2 melanoma
Assay: NCI tumour cell line growth inhibition, 48 h
Measure: TGI (µM)
Write the value in µM as a bare number.

Example cases with answers are listed next.
CCOC(=O)CCC(NC(=O)C(N)Cc1ccc(N(CCCl)CCCl)cc1)C(=O)OCC (stereo unspecified)
6.05
CCCC/C=C/C=C/C=C/CCCCCCCC(=O)OCC(COC(=O)CCCCCCC/C=C/C1C=CC(CCCC)C(C(=O)O)C1C(=O)O)OC(=O)CCCCCCC/C=C/C=C/C=C/CCCC (stereo unspecified) (tested in a mixture with another compound)
29.5

Turning now to a further compound:
// `O=C(Nc1nn2c(-c3cc(C(F)(F)F)cc(C(F)(F)F)c3)nnc2s1)C1CCCC1` : TGI value = 2.4
